Tested on: 496974-208-R-J2-PDC complex spheroids, growth % test/control;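 further: spheroids exposed to the drugs for 7 days before readout; 100% = DMSO vehicle control wells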
assay text: Anticancer human tumor 496974-208-R-J2-PDC patient-derived pancreatic carcinoma cell line growth inhibition [CLK]
measurement conditions: second compound 0.316 µM; first compound 0.01 µM; stronger effect = lower value
For each entry below, report its viability, T/C value.
One number for each entry, in %.

molecule	target or test system	numeric readout
CCN1CCN(Cc2ccc(Nc3ncc(F)c(-c4cc(F)c5nc(C)n(C(C)C)c5c4)n3)nc2)CC1 + CN1CCN(c2cc(C(=O)Nc3cc4cc(-c5cnn(C)c5)ccc4cn3)ccn2)CC1	496974-208-R-J2-PDC complex spheroids, growth % test/control	10.2
Cn1ncnc1[C@H]1c2n[nH]c(=O)c3cc(F)cc(c23)N[C@@H]1c1ccc(F)cc1 + CNC(=O)c1ccc(Nc2nc(OC3CCCC3)c3c(-c4ccc5nc(C)oc5c4)c[nH]c3n2)c(OC)c1	496974-208-R-J2-PDC complex spheroids, growth % test/control	80.4
COc1c(OCCCN2CCOCC2)ccc2c3n(c(=NC(=O)c4cnc(N)nc4)nc12)CCN3 + CNC(=O)c1ccc(Nc2nc(OC3CCCC3)c3c(-c4ccc5nc(C)oc5c4)c[nH]c3n2)c(OC)c1	496974-208-R-J2-PDC complex spheroids, growth % test/control	53.4
CCc1c2c(nc3ccc(O)cc13)-c1cc3c(c(=O)n1C2)COC(=O)[C@]3(O)CC + CNC(=O)c1ccc(Nc2nc(OC3CCCC3)c3c(-c4ccc5nc(C)oc5c4)c[nH]c3n2)c(OC)c1	496974-208-R-J2-PDC complex spheroids, growth % test/control	53.5

Consider the additional molecule presented here.
// viability, T/C (496974-208-R-J2-PDC complex spheroids, growth % test/control) for Cn1ncnc1[C@H]1c2n[nH]c(=O)c3cc(F)cc(c23)N[C@@H]1c1ccc(F)cc1 + CN1CCN(c2cc(C(=O)Nc3cc4cc(-c5cnn(C)c5)ccc4cn3)ccn2)CC1 = 6.84
